Test: yeast display, Sf9 membrane polyspecificity reagent, FACS + sequencing; frameworks hold sequencing errors

# seq text, polyreactivity (PSR sort gate)
measured = [
    ("QVQLVESGGGLVQAGGSLRLSCAASGSTFRTYAMGWYRQAPGKERELVAAISYNGGSTYYADSVTGRFTISRDNAKNTVYLQMNILKPEDTEVYYFAKDQTGYWYNRYGYWGQGTQVTVSS", "low polyreactivity"),
    ("QVQLVESGGGLVQAGGSLRLSCAASGRTFYLYGMGWYRQAHGKETELVAAITLSDGSTYYADSVKGRFTISRDNAKNTVYLQMNSLKPEDTAVYYCAARDYPFPYAMNYWGQGTQVTVSS", "low polyreactivity"),
]

----------
Test: yeast display, Sf9 membrane polyspecificity reagent, FACS + sequencing; frameworks hold sequencing errors
measured attribute: polyreactivity (PSR sort gate)

# seq text, result
records = [
    ("QVQLVESGGGLVQAGGSLRLSCAASGRIFHYYAMGWYRQAPGKERELVAAINKSGGRTYYADSVKGRFTISRDNAKNTVYLQMNSLKPEDTAVYYCAADVPGVTTSYAPYDSDYWGQGTQVTVSS", "high polyreactivity"),
    ("QVQLGESGGGLVQAGGSLRLSCAASGRTFVSNAMGWYRPAPGNERELVAAITQSGGSTYADSVKGRFTISRDNAKNTVYLQMNSLKPEDTAVYYCNADHAFVGTYYERHDYWGQGTQVTVSS", "low polyreactivity"),
    ("QVQLVESGGGLVQAGGSLRLSCAASGRTFYPNTMGWYRQAPGKERELVATITRSGGNTYADSVKGRFTISRDNAKNTVYLQMNSLKPEDTAVYYCNADQRRSYWLVSQRYDYWGQGTQVTVSS", "low polyreactivity"),
    ("QVQLVESGGGLVQAGGSLRLSCDASGRIFYINALGWYRQAPGKERELVASITGSGDSTYYADSVKGRFTISRDNAKNTVYLQMNILKPEDTAVYYCAARTYYYYGPRYYYWGQGTQVTVSS", "low polyreactivity"),
    ("QVQLVESGGGLVQAGGSLRISCAASGSTYRKYTMGWYRQAPGNERDLVATISWSGGSTNYADSVKGRFTISRDNAKTIVYLQMISLKPDDTAVYYCNAYVSPRYRGSRYYYWGQGTQVTVSS", "high polyreactivity"),
    ("QVQLVESGGGLVQAGGSLRLSCAASGRIFTRYAMGWYRPAPGKERELVAVIRYSGGSTYYADSVKGRFTISRDNAKNTVYLQMNSLKPEDTAVYYCAAYARGVRRYRRYDYWGQGTQVTVSS", "high polyreactivity"),
    ("QVQLVESGGGLVQAGGSLRLSCAASGSTLNDYAMGWYRQSPGKERELVAGINRGGSTNYADSVKGRFTISRDNAKNTVYLQMKSLKPVDTAVYYCAVRAYRWRSTLGLYYWGQGTQVTVSS", "high polyreactivity"),
    ("QVQLVESAGGLVQAGGSLRLSCAASGSTFAIKAMGWYRQAPGKERELVAAISSSGSTNYADSVKGRFTISRDNAKNTVYLQMNSLKQEDTAVYYCAADRVWGTPQAYVPSHFDYWGQGTQVTVSS", "low polyreactivity"),
    ("QVQLVEAGGGLVQAGGSLRLSCAASGFILENYAMGWNRQAPGKERELVAAISGSGGTTYYADSVKGRFTISRDNAKNTVYLQMNSLKPEDTAVYYCNRDRLLRQYDYWGQGTQVTVSS", "high polyreactivity"),
    ("QVQLVESGGGLVQAGGSLRLSCAASGRIFSTYAMGWYRQAPGKERELVAAITWDGRTYYADSVKGRFTISRDNAKNTVYLQMNSLKPEDTAVYYCAADGEYRYDWEYESWGQGTQVTVSS", "low polyreactivity"),
    ("QVQLEESGGGLVQAGGSIRLSCAASGFIFYYNAMGWYRQAPGKERELVASIRSGGSTNYADSVKGRFTISRDNAKNTVYLQMNSLKPEDTAVYYCAADISRWSHRSKEMYYWGQGTQVTVSS", "low polyreactivity"),
]

----------
Assay: yeast display, Sf9 membrane polyspecificity reagent, FACS + sequencing; frameworks hold sequencing errors

# seq text, polyreactivity (PSR sort gate)
measured = [
    ("QVQLVESGGGLVQAGGSLRLSCAASGRTFGKYTMGWYRQAPGKERELVAAINRRGGSTYYADSVKGRFTISRDNAKNTVYLQMNSLKPEDTAVYYCAKDGYSIDRYYWGQGTQVTVSS", "high polyreactivity"),
    ("QVQLVESGGGLVQAGGSLRLTCAASGRTFGTYAMGWSRQAPGKERELVAVITNGGGTYYADSVKGRFTISRDNAKNTVYLQMNSLKPEDTAVYYCNTDRYGLRRWVYSYWGGYDYWGQGTQVTVSS", "low polyreactivity"),
    ("QVQLVESGGGLVQAGGSLRLRCAASGITFSGNAMGWYRQAPRKERELVAAITFSGGRTYYADSVKGSFTISRDNAKNTVYLQMNSLKPEDSAVYYCAAETPRGRWLGDYWGQGTQVTVSS", "low polyreactivity"),
    ("QVQLVESGGGLVQAGGRLGLSCAASGRSFPWYTMGWYRQATGKERELVAAISSSGSTTYYADSVNGRFTISRDNAKITVYLQMNSLKPEDTAVYYCNKADPPEYDYWGQGTPVTVSS", "high polyreactivity"),
    ("QVQLVESGGRLVQGGGSLRLSCAASGITFKGYTMGWYRQAPGKERELVATISRGGRTYADSVKGRFTISRDNAKNTVYLQMNSLKPEDSAVYYCAADKYWAQNDYWGQGTQVTVSS", "low polyreactivity"),
]

----------
Assay: yeast display, Sf9 membrane polyspecificity reagent, FACS + sequencing; frameworks hold sequencing errors
measured attribute: polyreactivity (PSR sort gate)

# seq text, result
data = [
    ("QVQLVESGGGLVQAGGSLRLSCAASGRTFYWYAMGWYRQAPGKERELVAAIRRSGGRTYYADSVKGRFTISRDNAKNTVYLQMNSLKPEDTAVYYCNVAYLRYPGPLDYWGQGTQVTVSS", "high polyreactivity"),
    ("QVQLVESGGGLVQAGGSLRLSSAASGRIFVYNAMGWYRQAPGKERELVAGISWSGARSHYADSVKGRFTISRDNAKKTVYLLMNSLKPEDTAVYYCAAYPQYRSFQYDYWGQGTQVTVSS", "high polyreactivity"),
    ("QDQLVESGGGLVQAGGSLRLSCAPSGRTFYSYAMGWYRQAPGKERELVATIDSGGRTNYADSVKGRFTISRDNAKNTVYLQMNSLKPEDTAVYYCAASVWNWYFGIRYDYWGQGTQVTVSS", "high polyreactivity"),
    ("QVQLVESGGGLVHAGGSLRLSCAASGSIFPSNAMGWYREAPGKERELVAAISQSGGRTYYADSVKGRFTISRDNAKNTVYLQMNSLKPEDTAVYYCAADHRRAGMDYWGQGTQVTVSS", "low polyreactivity"),
    ("QVQLVESGGGLVQAGGSLRLSCAASGRIFPWNAMGWYRQAPGKERELVAAISFSAGRTYYADSVKGRFTISRDNAKTTVYLQMTSLKPEDTAVYFCTKASYWGSGFDYWGQGTQVTVSS", "low polyreactivity"),
]

----------
Assay: yeast display, Sf9 membrane polyspecificity reagent, FACS + sequencing; frameworks hold sequencing errors

# seq text, polyreactivity (PSR sort gate)
rows = [
    ("QVQLVESGGGLVQAGGSLRLSCAASGSTFTRYAMGWYRQAPGKERELVAGITGRGGSTYYADSVKGRFTISRDNAKNTVYLQMNSLKPEDTAVYYCNKRRRGVTTYDYWGQGTQVTVSS", "high polyreactivity"),
    ("QVQLVESGGGLVQAGGSLRISCAASGSTFDVNAMGWYRQAPGKERELVAAISWNSGSTYYADSVKGRFTISRDNAKNTVYLQMNSLKPEDTAVYYCAATYGTGRRSKYGYWGQGTQVTVSS", "high polyreactivity"),
]

----------
Experiment: yeast display, Sf9 membrane polyspecificity reagent, FACS + sequencing; frameworks hold sequencing errors
measured attribute: polyreactivity (PSR sort gate)

# seq text, result
data = [
    ("QVQLVESGGGLVQAGGSLRLSCAASGRIYPKYGMGWYRQAPGKERELVAAITSGTSTYYADSVKGRFTISRDNAKNTVYLQMNSLKPEDTAVYYCAARPTDGSGWPYRWTSDYWGQATQVTVSS", "low polyreactivity"),
    ("QVQLVESGGGLVQAGGSLRLSCAASGFTISVYAMGWYRQAPGKERELVAAISWNGGRTYYAVSVKGRFTISRDNAKNTVYLQMNSLKPEDSAVYYCNKVSGYDVDYWGQGTQVTVSS", "high polyreactivity"),
    ("QVQLVESGGGLVQAGGSLRLSCAASGRTFHRYAMGWYRQAPGKERELVATISRGGSTNYADSVKGRFTISRDNAKNTVYLQMHSLKPEDTAVYYCAAESWIYWYPDTGDYWGQGTQVTLSS", "high polyreactivity"),
    ("QVHLVESGRGLFQAGGSLRLSCAASGFTFTTYVMGWYRQAPGKERELVAAITSGGSTNYADSVKGRFTISRDNAKNTVFLQMNSLKPEDTAVYFCNAVKDDGKGSYPNLHVFDYDYWGQGTQVTVSS", "low polyreactivity"),
    ("QVQLVESGGGLVQAGGSLRLSCAASGSTFRPYAMGWYRQAPGKEMELVARMTGSGDSTYYADSVKGRFTISRDNAKNTVYLQMNSLKPEDTAVYYCNALYTSLRKYNYWGQGTQVTVSS", "low polyreactivity"),
]
